Assay: AUC (0 to last) in mouse at 15 mg/kg, po
Type: ADME, organism-based
Set-up: time 0 - last, dose 15 mg/kg, route po
Conditions: in vivo
measurement name: AUC(0-t) (ng·h/mL)
Just the number in ng·h/mL, nothing appended.

[ask] Which AUC(0-t) is listed for Nc1nc(-c2cccc(-n3ccc4cc(C5CC5)cc(F)c4c3=O)c2CO)c2cc(C3=CCN(C4COC4)CC3)[nH]c2n1 [MILREBRUTINIB] ?
[reply] 8060

###

Assay: Tmax in dog at 5 mg/kg, po
Assay type: ADME, organism-based, Canis lupus familiaris
Details: in vivo
measurement name: Tmax (min)
Field format: number, assumed min, no unit text.

[ask] Give its Tmax value. Item: `Nc1nc(-c2cccc(-n3ccc4cc(C5CC5)cc(F)c4c3=O)c2CO)c2cc(C3=CCN(C4COC4)CC3)[nH]c2n1`
[reply] 50

Data credit: ChEMBL document CHEMBL5053510
